- ASSAY_REMARKS: Solubility of Compound (I) in water and solubilizing vehicles
- Type: physicochemical
- PROTOCOL_CONDITIONS: water with 14% hydroxypropyl-β-cyclodextrin, aqueous with cosolvent or surfactant or cyclodextrin, water with 14% hydroxypropyl-β-cyclodextrin; read-out: solubility
QUANTITY_NAME: solubility
Number plus unit, in that order.

Consider the compound O=C1c2cc(-c3ccc(OC(F)(F)F)cc3)ccc2OCCN1Cc1ncccn1 [Compound (I)] and give its measured solubility. 7400 µg/mL

====

- ASSAY_REMARKS: Solubility of Compound (I) in water and solubilizing vehicles
- Type: physicochemical
- PROTOCOL_CONDITIONS: about 0.4% TWEEN 80 and about 0.6% PEG 400 in water, aqueous with cosolvent or surfactant or cyclodextrin, about 0.4% TWEEN 80 and about 0.6% PEG 400 in water; read-out: solubility
QUANTITY_NAME: solubility (mg/mL)
Answer with a number only, understood to be in mg/mL.

Given the entry O=C1c2cc(-c3ccc(OC(F)(F)F)cc3)ccc2OCCN1Cc1ncccn1 , report its measured solubility. 0.4
